target: human adenosine A2b receptor (Homo sapiens (Human), UniProt P29275); experiment: Cellular in vitro reporter gene test for A2b receptor activity (CHO-K1, CRE-luciferase, NECA stimulation); type: cell-based; details: recombinant CHO-K1 cell line, CRE-luciferase reporter, antagonism of EC50 concentration of NECA; in some cases means of several determinations, rounded to two significant figures; read-out: A2b receptor IC50
Sequence (P29275 whole entry): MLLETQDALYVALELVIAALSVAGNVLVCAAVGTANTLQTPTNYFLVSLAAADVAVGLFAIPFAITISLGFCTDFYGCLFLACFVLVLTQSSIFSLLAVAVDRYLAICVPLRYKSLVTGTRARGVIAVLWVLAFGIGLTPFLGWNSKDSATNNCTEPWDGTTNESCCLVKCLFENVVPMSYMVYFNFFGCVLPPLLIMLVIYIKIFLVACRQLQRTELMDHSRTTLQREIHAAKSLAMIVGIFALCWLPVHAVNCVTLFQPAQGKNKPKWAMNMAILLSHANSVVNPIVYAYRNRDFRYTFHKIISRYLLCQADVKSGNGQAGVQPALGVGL
Experimental Readout: IC50 (nM)

These solved cases illustrate the format of a correct answer.
[[record]]
compound = "COCCn1c(=O)n(CCF)c(=O)c2c(C)c(CN3CCNC3=O)sc21"
experimental_readout = "IC50"
recorded_measurement = 18

[[record]]
compound = "COCCn1c(=O)n(CC(F)F)c(=O)c2c(C)c(CN3CCNC3=O)sc21"
experimental_readout = "IC50"
recorded_measurement = 9.4

[[record]]
compound = "CCn1c(=O)c2c(C)c(CN3CCNC3=O)sc2n(CC2CC2(F)F)c1=O (single isomer, unassigned; enantiomer 2) [Example 56]"
experimental_readout = "IC50"
recorded_measurement = 8

[[record]]
compound = "Cc1c(CN2CCNC2=O)sc2c1c(=O)n(CC(F)F)c(=O)n2CC1CCCO1 (single isomer, unassigned) [Example 220]"
experimental_readout = "IC50"
recorded_measurement = 15

[[record]]
compound = "Cc1c(Cn2cc[nH]c2=O)sc2c1c(=O)n(C(C)C)c(=O)n2CC1CCCO1 (single isomer, unassigned) [Example 249]"
experimental_readout = "IC50"
recorded_measurement = 41

[[record]]
compound = "CCn1c(=O)c2c(C)c(CN3CCNC3=S)sc2n(CCCF)c1=O"
experimental_readout = "IC50"
recorded_measurement = 4.1


[P] COCCn1c(=O)c2c(C)c(CN3CCNC3=NC#N)sc2n(CC2CCCO2)c1=O (racemic) [Example 367]
[Q] CCn1c(=O)c2c(C)c(CN3CCNC3=O)sc2n(CC2COC2)c1=O
Between item P and item Q , which reported IC50 is smaller? Write the label of whichever entry you select.
Q

[1] Cc1c(Cn2nc[nH]c2=O)sc2c1c(=O)n(C(C)C)c(=O)n2CF
[2] C=CCn1cnn(Cc2sc3c(c2C)c(=O)n(CC)c(=O)n3CCOC(F)(F)F)c1=O
[3] COCCn1c(=O)c2c(C)c(CN3CCNC3=O)sc2n(CC2CCCO2)c1=O (single isomer, unassigned) [Example 325]
[4] COCCn1c(=O)n(CCC(F)(F)F)c(=O)c2c(C)c(CN3CCN(C)C3=O)sc21
[5] Cc1c(CN2CCNC2=NC#N)sc2c1c(=O)n(C(C)C)c(=O)n2CCC(F)(F)F
Order these by IC50, descending, and give the full ranking. Response field: labels, in requested order.
4, 1, 3, 2, 5

[A] Cc1c(CN2CCNC2=O)sc2c1c(=O)n(CC(F)(F)F)c(=O)n2CC1CCCO1 (single isomer, unassigned) [Example 211]
[B] Cc1c(CN2CCNC2=O)sc2c1c(=O)n(CC(C)C)c(=O)n2C
Could you kindly indicate whether A or B has the higher IC50 value? Write the label of whichever entry you select.
A
(A: 17 nM, B: 11 nM)

[P] CCn1c(=O)c2c(C)c(CN3CCNC3=NC(=O)OC)sc2n(CC2CCO2)c1=O (single isomer, unassigned) [Example 372]
[Q] Cc1c(Cn2cc[nH]c2=O)sc2c1c(=O)n(C(C)C)c(=O)n2CCC(F)(F)F
Could you kindly indicate whether P or Q has the higher IC50 value? Write the label of whichever entry you select.
P

----------
target: human adenosine A2b receptor (Homo sapiens (Human)); experiment: Cellular in vitro reporter gene test for A2b receptor activity (CHO-K1, CRE-luciferase, NECA stimulation); assay type: cell-based; details: recombinant CHO-K1 cell line, CRE-luciferase reporter, antagonism of EC50 concentration of NECA; in some cases means of several determinations, rounded to two significant figures; read-out: A2b receptor IC50
Experimental Readout: IC50 (nM)

These solved cases illustrate the format of a correct answer.
[[record]]
compound = "COCCn1c(=O)n(CC(C)(C)C)c(=O)c2c(C)c(Cn3cc[nH]c3=O)sc21"
recorded_measurement = 12

[[record]]
compound = "[2H]C([2H])(c1sc2c(c1C)c(=O)n(C(C)C)c(=O)n2CCOC)N1CCNC1=NC#N"
recorded_measurement = 5.1

[[record]]
compound = "COCCn1c(=O)n(C(C)C(F)(F)F)c(=O)c2c(C)c(CN3CCNC3=NC#N)sc21 (racemic) [Example 452]"
recorded_measurement = 14

[[record]]
compound = "COCCn1c(=O)c2c(C)c(Cn3[nH]ccc3=O)sc2n(CCC(F)(F)F)c1=O"
recorded_measurement = 63

[[record]]
compound = "COC(C)(C)Cn1c(=O)c2c(C)c(CN3CCNC3=S)sc2n(CCC(F)(F)F)c1=O"
recorded_measurement = 4.4

[[record]]
compound = "CCn1c(=O)c2c(C(F)F)c(CN3CCNC3=O)sc2n(CCOC)c1=O"
recorded_measurement = 12

[[record]]
compound = "COCCn1c(=O)n(C(C)C)c(=O)c2c(C)c(Cn3cc[nH]c3=O)sc21"
recorded_measurement = 4.7

[[record]]
compound = "COCCn1c(=O)c2c(C)c(CN3CCNC3=NC#N)sc2n(CC2CCCO2)c1=O (single isomer, unassigned) [Example 369]"
recorded_measurement = 33


[A] COCCn1c(=O)n(CC(C)(C)O)c(=O)c2c(C)c(CN3CCNC3=O)sc21
[B] Cc1c(CN2CCNC2=O)sc2c1c(=O)n(C(C)C)c(=O)n2CC1CCCO1 (racemic) [Example 186]
Could you kindly indicate whether A or B has the higher IC50 value? Write the label of whichever entry you select.
A
(A: 130 nM, B: 13 nM)

----------
pKi: −log10 of the molar value.
The following compounds each carry a recorded pKi for human adenosine A3 receptor (Homo sapiens (Human), UniProt P0DMS8).
Experimental Readout: pKi

[[record]]
compound = "CCn1c(=O)c2c(C)c(Cn3cn[nH]c3=O)sc2n(CCC(F)(F)F)c1=O [Example 116]"
target_entity = "human adenosine A3 receptor (Homo sapiens (Human), UniProt P0DMS8)"
recorded_measurement = 6.48


[1] COCCn1c(=O)n(C(C)C)c(=O)c2c(C)c(CN3CCNC3=O)sc21 [Example 86]
[2] CCn1c(=O)c2c(C)c(Cn3cc[nH]c3=O)sc2n(CCOC)c1=O [Example 109]
Could you kindly indicate whether 1 or 2 has the higher pKi value? Write the label of whichever entry you select.
2

----------
target: human adenosine A2b receptor (Homo sapiens (Human)); assay: Cellular in vitro reporter gene test for A2b receptor activity (CHO-K1, CRE-luciferase, NECA stimulation); format: cell-based; settings: recombinant CHO-K1 cell line, CRE-luciferase reporter, antagonism of EC50 concentration of NECA; in some cases means of several determinations, rounded to two significant figures; read-out: A2b receptor IC50
pIC50: −log10 of the molar value.
Experimental Readout: pIC50

[[record]]
compound = "Cc1c(CN2CCNC2=O)sc2c1c(=O)n(CC(F)F)c(=O)n2CC1CCCO1 (single isomer, unassigned) [Example 221]"
experimental_readout = "pIC50"
recorded_measurement = 7.54

[[record]]
compound = "COCCn1c(=O)n(C(C)C(F)(F)F)c(=O)c2c(C)c(CN3CCNC3=NC#N)sc21 (single isomer, unassigned) [Example 511]"
experimental_readout = "pIC50"
recorded_measurement = 6.96

[[record]]
compound = "Cc1c(CN2CCNC2=O)sc2c1c(=O)n(C(C)C)c(=O)n2CC1CCO1 (racemic) [Example 183]"
experimental_readout = "pIC50"
recorded_measurement = 7.77


[1] CCn1c(=O)c2c(C)c(Cn3nc[nH]c3=O)sc2n(CC2CCCO2)c1=O (single isomer, unassigned) [Example 421]
[2] Cc1c(CN2CCNC(=O)C2=O)sc2c1c(=O)n(CC(F)(F)F)c(=O)n2CC1CCCO1 (racemic) [Example 487]
Could you kindly indicate whether 1 or 2 has the higher pIC50 value? Write the label of whichever entry you select.
1
(1: 7.15, 2: 6.60)

----------
molecular target: human adenosine A2b receptor (Homo sapiens (Human), UniProt P29275); assay: Cellular in vitro reporter gene test for A2b receptor activity (CHO-K1, CRE-luciferase, NECA stimulation); assay type: cell-based; settings: recombinant CHO-K1 cell line, CRE-luciferase reporter, antagonism of EC50 concentration of NECA; in some cases means of several determinations, rounded to two significant figures; read-out: A2b receptor IC50
pIC50: −log10 of the molar value.
Experimental Readout: pIC50

These solved cases illustrate the format of a correct answer.
[[record]]
compound = "CCn1c(=O)c2c(C)c(CN3CCNC3=NC(=O)OC)sc2n(CC2CCCO2)c1=O (single isomer, unassigned) [Example 376]"
target_entity = "human adenosine A2b receptor (Homo sapiens (Human), UniProt P29275)"
recorded_measurement = 8.10

[[record]]
compound = "CCn1c(=O)c2c(C)c(CN3CCNC3=O)sc2n(CF)c1=O"
target_entity = "human adenosine A2b receptor (Homo sapiens (Human), UniProt P29275)"
recorded_measurement = 8.09

[[record]]
compound = "COCCn1c(=O)n(CC(C)(C)C)c(=O)c2c(C)c(CN3CCNC3=O)sc21"
target_entity = "human adenosine A2b receptor (Homo sapiens (Human), UniProt P29275)"
recorded_measurement = 8.11


[A] Cc1c(CN2CCNC2=NC#N)sc2c1c(=O)n(CC(F)(F)F)c(=O)n2CC1CCCO1 (single isomer, unassigned) [Example 360]
[B] CCn1c(=O)c2c(C(F)(F)F)c(CN3CCOC3=O)sc2n(CCC(F)(F)F)c1=O
Could you kindly indicate whether A or B has the higher pIC50 value? Write the label of whichever entry you select.
A
(A: 8.00, B: 7.80)

Source: patent US10428083B2
